- Experimental details: Stability to serum proteases (HPLC)
- Format: in vitro ADME, mouse
- Protocol conditions: mouse, mouse serum; after 2 hours (test 2); read-out: peptide degraded in the presence of mouse serum
Ends that are not written are not given here.
Property: metabolised at 2 h, 0.71 mg/ml

metabolised at 2 h, 0.71 mg/ml lookup needed for NPDESSKPNMI [peptide No. 5, NPDESSKPNMI] , thanks.
~3.5%

* * *

- Tested on: anti-CD3 antibody induced TNFα secretion from T cells
- Experimental details: TNFα secretion by anti-CD3 activated T cells
- Type: cell-based, human
- Protocol conditions: peptide 100 ng/ml; 24 hours; ELISA; FIG. 7A
Property: inhibition of anti-CD3 antibody induced TNFα secretion from T cells (%)
Enter your answer as a number in %; do not include the unit.

Below, each entry is followed by its recorded inhibition of anti-CD3 antibody induced TNFα secretion from T cells result.
ALTDMPQM [compound 7, residues 250-257 of Fibrinogen Aα; identified in wound fluids, then synthesized]: 30
LSALEEYTKKLNTQ [peptide No. 2, residues 254-267 of Apo A-I; identified in wound fluids, then synthesized]: 40
DHSKNPVGV [compound 8, residues 320-328 of ADAM 8; identified in wound fluids, then synthesized]: 30
ELERPGGNEI [compound 6, residues 260-269 of Fibrinogen Aα; identified in wound fluids, then synthesized]: 40

Would you kindly look at the next entry?
inhibition of anti-CD3 antibody induced TNFα secretion from T cells lookup needed for WDNLEKETEGL [peptide No. 3, residues 96-106 of Apo A-I; identified in wound fluids, then synthesized] , thanks.
50

* * *

- System: anti-CD3 antibody induced TNFα secretion from T cells
- Experimental details: TNFα secretion by anti-CD3 activated T cells
- Type: cell-based, human
- Protocol conditions: peptide 100 ng/ml; 24 hours; ELISA; FIG. 7A
Property: inhibition of anti-CD3 antibody induced TNFα secretion from T cells

Below, each entry is followed by its recorded inhibition of anti-CD3 antibody induced TNFα secretion from T cells result.
TDYGKDLMEKV [peptide No. 4, residues 42-52 of Apo A-II; identified in wound fluids, then synthesized]: ~50%
NDADDST [compound 9, residues 302-308 of Cadherin 4; identified in wound fluids, then synthesized]: ~50%

inhibition of anti-CD3 antibody induced TNFα secretion from T cells lookup needed for NQGEESAEI [compound 10, residues 470-478 of Calcitonin receptor; identified in wound fluids, then synthesized] , thanks.
~70%
